experiment: Cmax in BALB/cAnNCrl mouse at 20 mg/kg, po; assay type: ADME, organism-based; parameters: dose 20 mg/kg, route oral; settings: in vivo
Please go through the items and note down their Cmax.
Expressed in µM, but write only the number.

Cmax for "Cc1ccc(-n2nc(C(C)(C)C)cc2NC(=O)Nc2ccc(Oc3ccnc4[nH]c(=O)[nH]c34)cc2)cc1" ?
3.67

Cmax for "Cn1c(=O)[nH]c2nccc(Oc3ccc(NC(=O)Nc4cc(C(C)(C)C)nn4-c4ccccc4)c4ccccc34)c21" ?
35.5

====

target: Serine/threonine-protein kinase B-raf (Homo sapiens, UniProt P15056, V600E); assay: Inhibition of human BRAF V600E mutant expressed in baculovirus system
Sequence (P15056 2-766 V600E limits assumed): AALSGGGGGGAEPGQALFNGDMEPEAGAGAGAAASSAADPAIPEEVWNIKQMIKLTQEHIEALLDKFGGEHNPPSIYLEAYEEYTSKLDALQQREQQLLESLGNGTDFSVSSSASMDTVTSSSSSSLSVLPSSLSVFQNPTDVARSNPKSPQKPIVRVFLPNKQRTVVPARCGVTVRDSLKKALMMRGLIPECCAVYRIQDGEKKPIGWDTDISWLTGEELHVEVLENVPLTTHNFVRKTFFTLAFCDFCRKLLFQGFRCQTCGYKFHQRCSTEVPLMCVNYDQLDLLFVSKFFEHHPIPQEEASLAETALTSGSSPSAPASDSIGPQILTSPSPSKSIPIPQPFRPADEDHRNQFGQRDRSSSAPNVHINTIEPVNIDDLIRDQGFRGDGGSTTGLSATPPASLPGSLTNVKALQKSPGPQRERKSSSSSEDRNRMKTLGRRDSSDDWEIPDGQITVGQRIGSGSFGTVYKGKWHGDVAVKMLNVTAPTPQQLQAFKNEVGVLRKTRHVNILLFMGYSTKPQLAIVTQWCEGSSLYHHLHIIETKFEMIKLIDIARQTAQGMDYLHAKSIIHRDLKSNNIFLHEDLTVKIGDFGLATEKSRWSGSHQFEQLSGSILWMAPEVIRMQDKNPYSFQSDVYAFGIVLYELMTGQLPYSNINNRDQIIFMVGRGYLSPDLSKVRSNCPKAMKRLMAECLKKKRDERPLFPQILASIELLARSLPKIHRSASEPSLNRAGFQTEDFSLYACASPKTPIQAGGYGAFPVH
measured.metric: pIC50
pIC50 here is simply -log10 of the concentration when that concentration is written in mol/L.

pIC50 for "Cc1ccc(-n2nc(C(C)(C)C)cc2NC(=O)Nc2ccc(Sc3ccnc4[nH]c(=O)[nH]c34)cc2)cc1" ?
5.66

pIC50 for "Cn1c(=O)[nH]c2nccc(Oc3ccc(NC(=O)Nc4cc(C(C)(C)C)nn4-c4ccc(F)cc4)cc3)c21" ?
6.87

pIC50 for "Cc1ccc(-n2nc(C(C)(C)C)cc2NC(=O)Nc2ccc(Oc3ccnc4c3[nH]c(=O)n4C)cc2)cc1" ?
5.52

pIC50 for "CC(C)(C)c1cc(NC(=O)Nc2ccc(Oc3ccnc4[nH]c(=O)[nH]c34)cc2)n(-c2ccc(Cl)cc2)n1" ?
6.85

pIC50 for "Cc1ccc(-n2nc(C(C)(C)C)cc2NC(=O)Nc2ccc(Oc3ccnc4[nH]c(=O)[nH]c34)cc2)cc1" ?
6.85
